Assay Target: LRX4^ΔE-FLAG (Arabidopsis thaliana) (UniProt Q9LHF1)
Sequence (Q9LHF1 26-494, stated change not applied): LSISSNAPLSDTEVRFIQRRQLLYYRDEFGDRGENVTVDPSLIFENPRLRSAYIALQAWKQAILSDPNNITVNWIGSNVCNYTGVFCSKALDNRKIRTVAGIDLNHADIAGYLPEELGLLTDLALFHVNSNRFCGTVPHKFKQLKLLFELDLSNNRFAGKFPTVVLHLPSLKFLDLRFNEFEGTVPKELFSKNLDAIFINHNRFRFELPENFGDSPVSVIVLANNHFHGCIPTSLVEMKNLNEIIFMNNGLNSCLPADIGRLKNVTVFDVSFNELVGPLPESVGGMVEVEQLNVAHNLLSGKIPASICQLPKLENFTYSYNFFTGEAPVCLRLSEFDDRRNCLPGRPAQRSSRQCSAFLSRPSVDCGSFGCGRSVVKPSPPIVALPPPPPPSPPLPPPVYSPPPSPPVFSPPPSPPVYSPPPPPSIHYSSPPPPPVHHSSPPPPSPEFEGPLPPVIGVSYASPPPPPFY
Run Description: BLI; BLITZ; LRX^ΔE-FLAG mixed with anti-FLAG M2 antibody and loaded onto a protein A biosensor; synthetic RALF1 peptide added at 0.2-200 μM; association 120 s, dissociation 120 s; sample diluent buffer (Pall FortéBio)
pKd: −log10 of the molar value.

[
  {
    "Binder": "ATTKYISYQSLKRNSVPCSRRGASYYNCQNGAQANPYSRGCSKIARCRS [synthetic RALF1 peptide]",
    "pKd": 8.26
  }
]

Values were extracted from paper PMC7357788.
